Recorded values, source patent US20150005281A1.

Measured pIC50 accompanies every entry in the list below.
study_target: JAK3 (Homo sapiens, UniProt P52333)
Construct: endogenous in cells; host or cells: Molt4 (ATCC CRL-1582) and Ramos (ATCC CRL-1596) cells; mixed lysate 1:2
Sequence (P52333 whole entry): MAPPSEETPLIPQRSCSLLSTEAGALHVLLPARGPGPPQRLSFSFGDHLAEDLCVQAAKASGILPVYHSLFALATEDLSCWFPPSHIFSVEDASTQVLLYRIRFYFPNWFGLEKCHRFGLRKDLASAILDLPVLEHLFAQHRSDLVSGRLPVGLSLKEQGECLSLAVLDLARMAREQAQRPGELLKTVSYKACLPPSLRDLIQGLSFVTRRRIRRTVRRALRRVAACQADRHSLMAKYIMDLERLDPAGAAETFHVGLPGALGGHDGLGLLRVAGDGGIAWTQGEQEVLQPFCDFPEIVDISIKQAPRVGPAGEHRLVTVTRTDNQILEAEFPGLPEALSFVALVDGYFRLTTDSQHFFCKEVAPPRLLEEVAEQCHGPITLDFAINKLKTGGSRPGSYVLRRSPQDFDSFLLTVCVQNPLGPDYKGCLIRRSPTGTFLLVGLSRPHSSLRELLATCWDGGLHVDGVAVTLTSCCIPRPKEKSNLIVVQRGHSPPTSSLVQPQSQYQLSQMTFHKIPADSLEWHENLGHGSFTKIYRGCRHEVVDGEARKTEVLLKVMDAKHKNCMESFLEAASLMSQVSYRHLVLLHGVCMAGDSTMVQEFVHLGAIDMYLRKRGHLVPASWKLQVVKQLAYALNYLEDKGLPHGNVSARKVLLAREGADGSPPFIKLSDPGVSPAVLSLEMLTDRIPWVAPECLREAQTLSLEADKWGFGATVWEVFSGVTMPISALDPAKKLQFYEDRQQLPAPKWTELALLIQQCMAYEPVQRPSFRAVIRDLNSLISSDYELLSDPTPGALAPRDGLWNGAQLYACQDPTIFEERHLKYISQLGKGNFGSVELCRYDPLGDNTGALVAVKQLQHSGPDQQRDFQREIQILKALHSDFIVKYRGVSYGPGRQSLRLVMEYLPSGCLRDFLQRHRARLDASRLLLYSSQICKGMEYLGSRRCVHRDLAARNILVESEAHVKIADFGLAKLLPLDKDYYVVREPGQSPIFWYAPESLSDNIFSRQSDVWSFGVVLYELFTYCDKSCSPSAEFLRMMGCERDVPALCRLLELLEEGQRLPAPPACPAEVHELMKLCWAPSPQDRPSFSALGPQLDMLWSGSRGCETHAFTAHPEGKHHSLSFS
measurement_notes: Kinobeads assay with immunodetection, JAK3
Format: binding
condition_label: Kinobeads assay, mixed Molt4/Ramos lysate; read-out: Inhibition values (IC50) JAK3
pIC50: −log10 of the molar value.

Examples from the recorded data:
molecule	test_result
Cn1cc(Nc2ncc(Cl)c(NC[C@H]3CCCN3C3CCS(=O)(=O)C3)n2)cn1 (stereo partly drawn)	> 7.00
Cc1cnc(Nc2cnn(C)c2)nc1NC[C@@H]1CCCN1CCS(C)(=O)=O	6.00 to 7.00
Cn1cc(Nc2ncc(Cl)c(NC[C@@H]3C[C@H](F)CN3CCC#N)n2)cn1	> 7.00
CC(=O)N1CCCC[C@@H]1CNc1nc(Nc2cnn(CCO)c2)ncc1Cl	> 7.00
CC(C)NC(=O)Cn1cc(Nc2nccc(NC[C@H]3CCCN3CCC#N)n2)cn1	5.00 to 6.00

Task: Look at this molecule and give its reported pIC50. Cn1cc(Nc2ncc(Cl)c(NC[C@H]3CCCN3C(=O)CO)n2)cn1
Output: 6.00 to 7.00

Task: Bench note: what pIC50 did CC(=O)N1CCC[C@H]1CNc1nc(Nc2cnn(CCO)c2)ncc1Cl show?
Output: 6.00 to 7.00

Task: Given the entry Cn1cc(Nc2ncc(Cl)c(NC[C@@H]3C[C@H](F)CN3CCCC#N)n2)cn1 , report its measured pIC50.
Output: > 7.00

Task: pIC50 for CCN1CCC[C@@H]1CNc1nc(Nc2cnn(C)c2)ncc1Cl ?
Output: 6.00 to 7.00

----------
Each item that follows carries a reported IC50.
study_target: TYK2 (Homo sapiens)
Construct: endogenous in cells; mixed lysate 1:2
Sequence (P29597 whole entry): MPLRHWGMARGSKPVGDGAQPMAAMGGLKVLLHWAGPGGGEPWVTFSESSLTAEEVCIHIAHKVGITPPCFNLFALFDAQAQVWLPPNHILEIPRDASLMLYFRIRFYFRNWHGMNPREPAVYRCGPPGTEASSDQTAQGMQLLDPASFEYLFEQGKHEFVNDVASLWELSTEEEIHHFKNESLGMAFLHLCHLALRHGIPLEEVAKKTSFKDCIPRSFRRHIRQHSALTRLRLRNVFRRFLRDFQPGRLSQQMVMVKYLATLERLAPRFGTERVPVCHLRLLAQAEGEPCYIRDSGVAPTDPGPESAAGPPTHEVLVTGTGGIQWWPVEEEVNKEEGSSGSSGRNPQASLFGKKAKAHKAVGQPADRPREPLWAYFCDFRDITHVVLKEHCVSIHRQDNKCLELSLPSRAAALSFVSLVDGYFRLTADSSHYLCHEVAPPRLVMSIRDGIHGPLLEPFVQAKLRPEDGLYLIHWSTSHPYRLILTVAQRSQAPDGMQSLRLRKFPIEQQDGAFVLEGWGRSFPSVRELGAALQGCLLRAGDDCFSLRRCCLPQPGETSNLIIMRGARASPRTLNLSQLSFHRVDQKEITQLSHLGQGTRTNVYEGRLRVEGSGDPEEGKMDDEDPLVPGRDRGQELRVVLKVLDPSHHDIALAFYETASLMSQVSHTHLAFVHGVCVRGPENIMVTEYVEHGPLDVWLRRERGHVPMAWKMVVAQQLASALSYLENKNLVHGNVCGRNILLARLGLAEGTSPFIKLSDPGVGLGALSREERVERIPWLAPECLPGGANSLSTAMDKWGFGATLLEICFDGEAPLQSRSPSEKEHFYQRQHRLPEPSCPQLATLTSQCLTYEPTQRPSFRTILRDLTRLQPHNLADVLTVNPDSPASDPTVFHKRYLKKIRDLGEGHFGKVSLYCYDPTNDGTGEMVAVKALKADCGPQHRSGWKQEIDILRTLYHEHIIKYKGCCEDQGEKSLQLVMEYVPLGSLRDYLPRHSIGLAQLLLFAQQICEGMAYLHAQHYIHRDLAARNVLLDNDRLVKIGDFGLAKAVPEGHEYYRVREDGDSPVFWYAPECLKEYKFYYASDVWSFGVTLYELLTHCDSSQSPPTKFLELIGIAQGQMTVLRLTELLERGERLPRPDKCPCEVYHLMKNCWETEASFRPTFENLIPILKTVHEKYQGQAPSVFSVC
measurement_notes: Kinobeads assay with immunodetection, TYK2
condition_label: Kinobeads assay, mixed Molt4/Ramos lysate; read-out: Inhibition values (IC50) Tyk2
Description: Determination of the Effect of the Compounds According to the Invention on Janus Kinases (JAK Family) in Kinobeads™ Assays with Immunodetection of Kinases The compounds of the present invention as described in the previous examples were tested in a Kinobeads™ assay as described for ZAP-70 (WO-A 2007/137867). […] Dose response curves for individual kinases were generated and IC50 values calculated. […]

molecule_smiles	study_target	test_result
CS(=O)(=O)N1CCCC[C@H]1CNc1nc(Nc2cnn(CCO)c2)ncc1Cl	TYK2 (Homo sapiens)	100 to 1000 nM

Task: Give IC50 (TYK2 (Homo sapiens)) of the following compound: CC(=O)N1CCCC[C@H]1CNc1nc(Nc2cnn(C)c2)ncc1Cl
Output: 1000 to 10000 nM

Task: Record lookup: for TYK2 (Homo sapiens), what IC50 belongs to Cn1cc(Nc2ncc(Cl)c(NC[C@@H]3C[C@H](F)CN3CCC#N)n2)cn1 ?
Output: < 100 nM

Task: Item CCNC(=O)N1CCC[C@@H]1CNc1nc(Nc2cnn(C)c2)ncc1Cl with TYK2 (Homo sapiens) - IC50?
Output: < 100 nM

Task: // fetch TYK2 (Homo sapiens) IC50 for Cc1cnc(Nc2cnn(C)c2)nc1NC[C@@H]1C[C@H](F)CN1C(=O)CC#N
Output: 100 to 1000 nM

Task: API: value(readout=IC50, system=TYK2 (Homo sapiens)) for record CCS(=O)(=O)N1CCC[C@@H]1CNc1nc(Nc2cnn(C)c2)ncc1Cl
Output: < 100 nM

Task: # returns recorded IC50 (system: TYK2 (Homo sapiens)) for C=CC(=O)N1CCC[C@H]1CNc1nc(Nc2cnn(CCO)c2)ncc1Cl
Output: 100 to 1000 nM
